Target: ATP-dependent translocase ABCB1 (Homo sapiens)
Assay: Reversal of P-gp mediated multidrug resistance in human DU145-TxR cells overexpressing P-gp assessed as potentiation of paclitaxel-induced cytotoxicity by measuring fold reduction paclitaxel IC50 at 5 uM after 48 hrs by MTT assay relative to paclitaxel alone
Assay type: cell-based
Parameter: fold change (FC)
I'd appreciate a reply containing only the number, no unit.

Cc1cc(C)c(-c2cc(NC(=O)CSCC(=O)NCc3ccc(F)cc3)n(-c3ccccc3)n2)cc1C ... 5.6

// fold change (FC) value for Cc1cc(C)c(-c2cc(NC(=O)CSCC(=O)Nc3ccc4ccccc4c3)n(-c3ccccc3)n2)cc1C : 46

// fold change (FC) value for Cc1cc(C)c(-c2cc(NC(=O)CSCC(=O)Nc3ccc4ncsc4c3)n(-c3ccccc3)n2)cc1C : 372

* * *

Target: P-glycoprotein (ABCB1, MDR1) ATPase (Homo sapiens, UniProt P08183)
Sequence (P08183 whole entry): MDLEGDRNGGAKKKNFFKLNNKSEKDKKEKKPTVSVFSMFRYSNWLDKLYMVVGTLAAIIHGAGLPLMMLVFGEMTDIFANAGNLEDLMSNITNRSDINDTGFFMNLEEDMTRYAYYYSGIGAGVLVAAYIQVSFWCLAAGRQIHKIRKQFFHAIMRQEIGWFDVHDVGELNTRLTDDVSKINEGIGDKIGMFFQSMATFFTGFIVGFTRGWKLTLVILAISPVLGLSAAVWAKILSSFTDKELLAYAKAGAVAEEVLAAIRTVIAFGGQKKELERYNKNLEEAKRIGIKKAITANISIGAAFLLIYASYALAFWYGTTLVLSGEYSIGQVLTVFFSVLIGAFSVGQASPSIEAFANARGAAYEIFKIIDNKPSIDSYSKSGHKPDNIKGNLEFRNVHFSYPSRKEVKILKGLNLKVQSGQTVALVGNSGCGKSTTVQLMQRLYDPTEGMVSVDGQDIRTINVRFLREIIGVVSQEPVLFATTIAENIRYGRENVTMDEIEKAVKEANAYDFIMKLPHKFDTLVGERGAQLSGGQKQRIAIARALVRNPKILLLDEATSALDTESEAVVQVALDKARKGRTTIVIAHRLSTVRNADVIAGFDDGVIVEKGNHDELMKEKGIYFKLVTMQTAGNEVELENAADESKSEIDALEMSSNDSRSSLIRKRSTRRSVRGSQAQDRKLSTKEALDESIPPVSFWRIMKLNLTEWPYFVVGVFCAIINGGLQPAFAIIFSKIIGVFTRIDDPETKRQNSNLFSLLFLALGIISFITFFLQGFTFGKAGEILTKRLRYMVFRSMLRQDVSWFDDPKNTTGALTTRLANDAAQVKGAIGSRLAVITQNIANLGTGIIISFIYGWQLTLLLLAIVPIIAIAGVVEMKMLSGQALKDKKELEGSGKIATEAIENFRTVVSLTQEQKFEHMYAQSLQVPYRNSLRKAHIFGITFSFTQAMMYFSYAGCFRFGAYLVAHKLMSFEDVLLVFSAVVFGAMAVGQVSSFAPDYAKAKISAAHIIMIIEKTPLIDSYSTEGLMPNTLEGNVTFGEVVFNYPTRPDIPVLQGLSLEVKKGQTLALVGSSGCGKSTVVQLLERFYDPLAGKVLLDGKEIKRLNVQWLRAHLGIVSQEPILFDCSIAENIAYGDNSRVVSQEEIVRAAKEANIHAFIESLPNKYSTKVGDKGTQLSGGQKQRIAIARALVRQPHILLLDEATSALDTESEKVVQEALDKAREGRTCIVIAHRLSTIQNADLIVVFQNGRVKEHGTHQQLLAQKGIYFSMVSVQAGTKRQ
Test: Inhibition of verampil-stimulated ATPase hydrolysis in recombinant human MDR1 expressed in Pichia pastoris measured after 30 mins in presence of NADH by coupled enzyme assay (reference value: 100 +/- 6 %)
Parameters: scale not given: the % may be the effect or the level left
Conditions: recombinant human MDR1 (P-gp) expressed in Pichia pastoris
Parameter: Activity at 0.5 h (%)
Give the value in % but do not write % after it.

Consider the reported Activity at 0.5 h for these compounds:
Cc1cc(C)c(-c2cc(NC(=O)CSc3cccc(NC(=O)c4cncc(Br)c4)c3)n(-c3ccccc3)n2)cc1C ... 27
Cc1cc(C)c(-c2cc(NC(=O)CSCC(=O)Nc3ccc4ccccc4c3)n(-c3ccccc3)n2)cc1C ... 40

// Activity at 0.5 h value for Cc1cc(C)c(-c2cc(NC(=O)CSCC(=O)N3c4ccccc4CCc4ccccc43)n(-c3ccccc3)n2)cc1C : 62

// Activity at 0.5 h value for Cc1cc(C)c(-c2cc(NC(=O)CSc3n[nH]c(C4CC4)n3)n(-c3ccccc3)n2)cc1C : 62

// Activity at 0.5 h value for Cc1cc(C)c(-c2cc(NC(=O)CSCC(=O)c3ccc4c(c3)Cc3ccccc3-4)n(-c3ccccc3)n2)cc1C : 64

// Activity at 0.5 h value for Cc1cc(C)c(-c2cc(NC(=O)CSCC(=O)NC(c3ccccc3)c3ccccc3)n(-c3ccccc3)n2)cc1C : 54

// Activity at 0.5 h value for Cc1cc(C)c(-c2cc(NC(=O)CSCC(=O)NC34CC5CC(CC(C5)C3)C4)n(-c3ccccc3)n2)cc1C : 63

* * *

Target: P-glycoprotein (ABCB1, mouse MDR3) ATPase (Mus musculus, UniProt P21447)
Sequence (P21447 whole entry): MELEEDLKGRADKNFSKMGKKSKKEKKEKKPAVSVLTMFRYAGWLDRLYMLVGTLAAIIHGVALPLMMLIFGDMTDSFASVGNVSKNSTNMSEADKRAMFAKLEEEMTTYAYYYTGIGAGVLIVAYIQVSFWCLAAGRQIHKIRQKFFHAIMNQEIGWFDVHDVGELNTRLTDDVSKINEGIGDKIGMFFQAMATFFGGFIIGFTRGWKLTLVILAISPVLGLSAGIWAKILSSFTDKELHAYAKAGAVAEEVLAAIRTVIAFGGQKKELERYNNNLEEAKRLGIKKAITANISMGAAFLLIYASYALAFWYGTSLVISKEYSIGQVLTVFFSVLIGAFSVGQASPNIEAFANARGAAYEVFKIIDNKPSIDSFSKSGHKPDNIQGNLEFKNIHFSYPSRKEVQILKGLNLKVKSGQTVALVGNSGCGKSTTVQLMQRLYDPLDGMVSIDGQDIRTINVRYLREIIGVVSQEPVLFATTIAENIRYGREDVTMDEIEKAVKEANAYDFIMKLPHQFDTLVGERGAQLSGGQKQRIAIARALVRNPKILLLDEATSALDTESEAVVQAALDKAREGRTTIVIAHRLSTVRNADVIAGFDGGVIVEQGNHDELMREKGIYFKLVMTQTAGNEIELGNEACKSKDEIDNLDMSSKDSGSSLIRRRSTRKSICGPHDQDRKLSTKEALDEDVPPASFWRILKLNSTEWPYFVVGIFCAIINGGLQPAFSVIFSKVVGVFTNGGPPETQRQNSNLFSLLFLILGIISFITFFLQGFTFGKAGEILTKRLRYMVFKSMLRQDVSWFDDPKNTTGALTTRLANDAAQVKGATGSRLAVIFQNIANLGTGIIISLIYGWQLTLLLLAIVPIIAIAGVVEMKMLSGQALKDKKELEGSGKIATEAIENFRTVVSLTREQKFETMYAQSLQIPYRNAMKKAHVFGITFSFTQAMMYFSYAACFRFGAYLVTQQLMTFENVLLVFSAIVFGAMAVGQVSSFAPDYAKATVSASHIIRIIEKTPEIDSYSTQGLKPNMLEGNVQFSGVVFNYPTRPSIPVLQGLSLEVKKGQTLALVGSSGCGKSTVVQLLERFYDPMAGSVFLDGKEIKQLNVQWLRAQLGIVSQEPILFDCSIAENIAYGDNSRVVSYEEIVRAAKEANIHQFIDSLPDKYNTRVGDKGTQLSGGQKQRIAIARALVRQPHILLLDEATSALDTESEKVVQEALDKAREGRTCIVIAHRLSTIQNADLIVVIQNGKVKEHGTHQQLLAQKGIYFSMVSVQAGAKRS
Experiment: Inhibition of verampil-stimulated ATPase hydrolysis in recombinant mouse MDR3 expressed in Pichia pastoris measured after 30 mins in presence of NADH by coupled enzyme assay (reference value: 100 +/- 8 %)
Design: scale not given: the % may be the effect or the level left
Conditions: recombinant mouse MDR3 (P-gp) expressed in Pichia pastoris
# YES = Activity at 0.5 h below 50% (exclusive); NO = Activity at 0.5 h at/above 50%

Some entries whose results are on file:
Cc1cc(C)c(-c2cc(NC(=O)CSCC(=O)NC34CC5CC(CC(C5)C3)C4)n(-c3ccccc3)n2)cc1C ... YES
Cc1cc(C)c(-c2cc(NC(=O)CSc3nnc4c(n3)[nH]c3ccccc34)n(-c3ccccc3)n2)cc1C ... NO

API: the following record is the query input.
# strict comparison: is reported Activity at 0.5 h < 50%? input = Cc1cc(C)c(-c2cc(NC(=O)CSc3cccc(NC(=O)c4cncc(Br)c4)c3)n(-c3ccccc3)n2)cc1C
NO

* * *

Molecular target: ATP-dependent translocase ABCB1 (Homo sapiens)
Test: Reversal of P-gp mediated multidrug resistance in human DU145-TxR cells overexpressing P-gp assessed as potentiation of paclitaxel-induced cytotoxicity by measuring fold reduction paclitaxel IC50 at 3 uM after 48 hrs by MTT assay relative to parent compound
Format: cell-based
Rule: fold change (FC) under 3 gives 0, otherwise 1.

Some entries whose results are on file:
Cc1cc(C)c(-c2cc(NC(=O)CSCC(=O)NC(c3ccccc3)c3ccccc3)n(-c3ccccc3)n2)cc1C ... 1
Cc1cc(C)c(-c2cc(NC(=O)CSCC(=O)NC34CC5CC(CC(C5)C3)C4)n(-c3ccccc3)n2)cc1C ... 0

Exam item: decide whether the reported fold change (FC) for Cc1cc(C)c(-c2cc(NC(=O)CSCC(=O)NCc3ccc(F)cc3)n(-c3ccccc3)n2)cc1C is at least 3.
0

Exam item: decide whether the reported fold change (FC) for Cc1cc(C)c(-c2cc(NC(=O)CSCC(=O)c3ccc4c(c3)Cc3ccccc3-4)n(-c3ccccc3)n2)cc1C is at least 3.
0

Exam item: decide whether the reported fold change (FC) for Cc1cc(C)c(-c2cc(NC(=O)CSc3nnc4c(n3)[nH]c3ccccc34)n(-c3ccccc3)n2)cc1C is at least 3.
0

Exam item: decide whether the reported fold change (FC) for Cc1cc(C)c(-c2cc(NC(=O)CSCC(=O)N3c4ccccc4CCc4ccccc43)n(-c3ccccc3)n2)cc1C is at least 3.
1

Exam item: decide whether the reported fold change (FC) for Cc1cc(C)c(-c2cc(NC(=O)CSc3n[nH]c(C4CC4)n3)n(-c3ccccc3)n2)cc1C is at least 3.
0

* * *

Items are presented alongside their recorded Activity at 0.5 h.
Target: P-glycoprotein (ABCB1, mouse MDR3) ATPase (Mus musculus)
Assay: Basal ATPase hydrolysis in recombinant mouse MDR3 expressed in Pichia pastoris measured after 30 mins in presence of NADH by coupled enzyme assay (reference value: 100 +/- 7 %)
Design: scale not given: the % may be the effect or the level left
Settings: recombinant mouse MDR3 (P-gp) expressed in Pichia pastoris
Give the value in % but do not write % after it.

Cc1cc(C)c(-c2cc(NC(=O)CSCC(=O)NC34CC5CC(CC(C5)C3)C4)n(-c3ccccc3)n2)cc1C ... 78

// Activity at 0.5 h value for Cc1cc(C)c(-c2cc(NC(=O)CSCC(=O)Nc3ccc4ccccc4c3)n(-c3ccccc3)n2)cc1C : 70

* * *

Molecular target: P-glycoprotein 1 Abcb1a (Mus musculus)
Assay: Inhibition of spin-labelled adenine nucleotide interaction with mouse MDR3 P-gp expressed in Escherichia coli BL21 (DE3) assessed as apparent dissociation constant by ESR analysis (reference value: 36.5 +/- 3.6 uM)
Items are presented alongside their recorded pKd.
By convention, pKd is the negative base-10 log of a molar concentration.

Consider the reported pKd for these compounds:
Cc1cc(C)c(-c2cc(NC(=O)CSc3n[nH]c(C4CC4)n3)n(-c3ccccc3)n2)cc1C ... 4.15
Cc1cc(C)c(-c2cc(NC(=O)CSCC(=O)NCc3ccc(F)cc3)n(-c3ccccc3)n2)cc1C ... 4.59

Now for a further compound.
// pKd value for COc1cc(NC(=O)CSCC(=O)Nc2cc(-c3cc(C)c(C)cc3C)nn2-c2ccccc2)cc(OC)c1OC : 4.70

* * *

Target: ATP-dependent translocase ABCB1 (Homo sapiens, UniProt P08183)
Assay: Inhibition of P-gp overexpressed in human DU145-TxR cells assessed as increase in cellular accumulation of calcein AM at 2 uM preincubated for 6 hrs followed by calcein AM addition by fluorescence imaging analysis
Type: cell-based
Parameter: inhibition (INH)

Cc1cc(C)c(-c2cc(NC(=O)CSCC(=O)Nc3ccc4ccccc4c3)n(-c3ccccc3)n2)cc1C ... Active
Cc1cc(C)c(-c2cc(NC(=O)CSCC(=O)NC34CC5CC(CC(C5)C3)C4)n(-c3ccccc3)n2)cc1C ... Active
Cc1cc(C)c(-c2cc(NC(=O)CSCC(=O)NC(c3ccccc3)c3ccccc3)n(-c3ccccc3)n2)cc1C ... Active

* * *

Items are presented alongside their recorded fold change (FC).
Molecular target: ATP-dependent translocase ABCB1 (Homo sapiens, UniProt P08183)
Test: Reversal of P-gp mediated multidrug resistance in human DU145-TxR cells overexpressing P-gp assessed as potentiation of paclitaxel-induced cytotoxicity by measuring fold reduction paclitaxel IC50 at 5 uM after 48 hrs by MTT assay relative to parent compound
Assay type: cell-based
I'd appreciate a reply containing only the number, no unit.

Consider the reported fold change (FC) for these compounds:
Cc1cc(C)c(-c2cc(NC(=O)CSCC(=O)NC(c3ccccc3)c3ccccc3)n(-c3ccccc3)n2)cc1C ... 3.5
Cc1cc(C)c(-c2cc(NC(=O)CSCC(=O)Nc3ccc4ncsc4c3)n(-c3ccccc3)n2)cc1C ... 34

Now for a further compound.
// fold change (FC) value for Cc1cc(C)c(-c2cc(NC(=O)CSc3nnc4c(n3)[nH]c3ccccc34)n(-c3ccccc3)n2)cc1C : 9.2

* * *

Molecular target: P-glycoprotein (ABCB1, mouse MDR3) ATPase (Mus musculus, UniProt P21447)
Test: Stimulation of verampil-mediated ATPase hydrolysis in recombinant mouse MDR3 expressed in Pichia pastoris measured after 30 mins in presence of NADH by coupled enzyme assay (reference value: 100 +/- 8 %)
Design: scale not given: the % may be the effect or the level left
Details: recombinant mouse MDR3 (P-gp) expressed in Pichia pastoris, read-out: Activity
Items are presented alongside their recorded Activity at 0.5 h.
Give the value in % but do not write % after it.

Consider the reported Activity at 0.5 h for these compounds:
Cc1cc(C)c(-c2cc(NC(=O)CSCC(=O)Nc3ccc4ccccc4c3)n(-c3ccccc3)n2)cc1C ... 141
Cc1cc(C)c(-c2cc(NC(=O)CSCC(=O)NC(c3ccccc3)c3ccccc3)n(-c3ccccc3)n2)cc1C ... 116

// Activity at 0.5 h value for COc1cc(NC(=O)CSCC(=O)Nc2cc(-c3cc(C)c(C)cc3C)nn2-c2ccccc2)cc(OC)c1OC : 194
